meta.source: ChEMBL document CHEMBL4308847

# measurement-description: Intrinsic clearance in human liver microsomes at 1 uM preincubated for 5 mins followed by NADPH addition measured up to 45 mins by LC-MS/MS analysis
# Format: ADME, Microsome
# experimental-parameters: read-out: CLH
Attribute: CLint scaled at 1 µM
measurement-type: CLint scaled at 1 µM (mL/min/kg)

CCc1noc2cc(Nc3n[nH]c4cccnc34)ccc12 ... 69.9
Cc1noc2ccc(Nc3n[nH]c4ncccc34)cc12 ... 81.4
Cc1noc2ccc(Nc3n[nH]c4cc(F)cnc34)cc12 ... 24.2
Cc1noc2ccc(Nc3n[nH]c4ncc(F)cc34)cc12 ... 23.6
CCc1nsc2cc(Nc3n[nH]c4cccnc34)ccc12 ... 35.4
Cc1noc2ccc(Nc3n[nH]c4nccnc34)cc12 ... 114

----------
# measurement-description: Intrinsic clearance in human liver microsomes at 1 uM preincubated for 5 mins followed by NADPH addition measured up to 45 mins by LC-MS/MS analysis
# Type: ADME, Microsome
# experimental-parameters: read-out: CLH
Attribute: CLint scaled at 1 µM
measurement-type: CLint scaled at 1 µM (mL/min/kg)

CC(C)(C)Cc1nsc2cc(Nc3n[nH]c4nccnc34)cnc12 ... 40.2
c1cnc2c(Nc3ccc4c(C5CCCC5)noc4c3)n[nH]c2c1 ... 30.7
O=C(c1nsc2cc(Nc3n[nH]c4cccnc34)ccc12)N1CCC(F)(F)CC1 ... 54
CC1CN(C(=O)c2nsc3cc(Nc4n[nH]c5cccnc45)ccc23)CC(C)O1 (stereo unspecified) ... 60
c1cnc2c(Nc3ccc4c(C5CC5)nsc4c3)n[nH]c2n1 ... 41.2
CN(C(=O)c1nsc2cc(Nc3n[nH]c4cccnc34)ccc12)C1CC(F)(F)C1 ... 298
Cc1noc2c(F)cc(Nc3n[nH]c4cccnc34)cc12 ... 31.1
c1cnc2c(Nc3ccc4c(C5CCC5)noc4c3)n[nH]c2c1 ... 83.2
O=C(NC1CC(F)(F)C1)c1nsc2cc(Nc3n[nH]c4cccnc34)ccc12 ... 19
Cc1noc2c(F)cc(Nc3n[nH]c4ncccc34)cc12 ... 50.2
CC(=O)N1CCC(c2nsc3cc(Nc4n[nH]c5cccnc45)ccc23)CC1 ... 15.8

----------
Attribute: pIC50
# target-system: UniProt:P05177
# Sequence (P05177 whole entry): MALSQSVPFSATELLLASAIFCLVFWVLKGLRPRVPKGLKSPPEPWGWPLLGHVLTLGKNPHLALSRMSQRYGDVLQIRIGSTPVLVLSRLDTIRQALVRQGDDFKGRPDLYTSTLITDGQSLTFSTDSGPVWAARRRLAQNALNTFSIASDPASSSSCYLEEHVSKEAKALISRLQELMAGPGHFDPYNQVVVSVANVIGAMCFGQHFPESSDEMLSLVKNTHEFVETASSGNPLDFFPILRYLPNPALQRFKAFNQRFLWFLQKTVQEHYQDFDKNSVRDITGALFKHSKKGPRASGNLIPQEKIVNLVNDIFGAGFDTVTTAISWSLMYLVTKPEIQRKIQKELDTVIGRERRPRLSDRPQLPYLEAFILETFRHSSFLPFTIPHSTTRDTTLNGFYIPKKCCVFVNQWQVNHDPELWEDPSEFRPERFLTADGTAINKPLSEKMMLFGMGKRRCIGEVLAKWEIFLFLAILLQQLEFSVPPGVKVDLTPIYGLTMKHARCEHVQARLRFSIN
pIC50: −log10 of the molar value.
measurement-type: pIC50

CCC(CC)c1noc2cc(Nc3n[nH]c4cccnc34)ccc12 ... 6.00
CC(C)(C)Cc1noc2cc(Nc3n[nH]c4cccnc34)ccc12 ... 5.96
CC(F)(F)c1noc2cc(Nc3n[nH]c4cccnc34)ccc12 ... 6.30
